# EXPERIMENTAL SYSTEM: T1, human CD70 expressed on the cell surface of tumor cell lines (human, UniProt P32970 1-193)
# T1 construct: whole, on cells
# T1 sequence (looked up): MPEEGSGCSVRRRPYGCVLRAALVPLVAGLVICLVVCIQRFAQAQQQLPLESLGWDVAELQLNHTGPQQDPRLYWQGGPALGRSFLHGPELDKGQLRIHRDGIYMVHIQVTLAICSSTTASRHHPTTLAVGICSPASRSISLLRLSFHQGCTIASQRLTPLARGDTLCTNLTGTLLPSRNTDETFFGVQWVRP
# ASSAY REMARKS: flow cytometry on DBTRG-05MG cells
QUANTITY MEASURED: EC50

- BINDER: "1H8, full IgG (antibody, V domains shown) VH: QVQLQESGPGLVKPSETLSLTCTVSGGSVSSDYYYWSWIRQPPGKGLEWLGYIYYSGSTNYNPSLKSRVTISVDTSKNQFSLKLRSVTTADTAVYYCARGDGDFMGVCFDYWGQGTLVTVSS VL: EIVLTQSPATLSLSPGERATLSCRASQSVSSYLAWYQQKPGQAPRLLIFDASNRATGIPARFSGSGSGTDFTLTISSLEPEDFAVYYCQQRSNWPLTFGGGTKVEIK"
  EC50: "9.6 nM"
- BINDER: "2A4P0L1, full IgG (antibody, V domains shown) VH: QVQLQESGPGLVKPSETLSLTCTVSGGSVSSDYYYWSWIRQPPGKGLEWLGYIYYSGSTNYNPSLKSRVTISVDTSKNQFSLKLRSVTTADTAVYYCARGDGDYGGNVFPYWGQGTLVTVSS VL: EIVLTQSPATLSLSPGERATLSCRASQSVSSYLAWYQQKPGQAPRLLIFDASNRATGIPARFSGSGSGTDFTLTISSLEPEDFAVYYCQQRLKFPLTFGGGTKVEIK"
  EC50: "5.84 nM"

We now examine a further binder.
The binder listed as 69A7 (parent antibody), full IgG (antibody, V domains shown, also called parent antibody 69A7) VH: QVQLQESGPGLVKPSETLSLTCTVSGGSVSSDYYYWSWIRQPPGKGLEWLGYIYYSGSTNYNPSLKSRVTISVDTSKNQFSLKLRSVTTADTAVYYCARGDGDYGGNCFDYWGQGTLVTVSS VL: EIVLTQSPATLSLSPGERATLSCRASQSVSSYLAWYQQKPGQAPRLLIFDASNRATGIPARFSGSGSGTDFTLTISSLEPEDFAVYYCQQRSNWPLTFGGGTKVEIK has a reported EC50 of 11.3 nM
